Tested on: Saccharomyces cerevisiae;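 further: PSI is a weighted mean of sequencing reads over stability bins, variants kept only with over 10 reads, mCherry proximal and sfGFP distal, peptide attached via GGGS linker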
TEST_NAME: protein stability index of tFT-peptide fusion (C-terminal peptide) (PSI (0-1 scale)); higher = more stable (slower turnover)
TEST_SETTINGS: genetic background: cdc34-1; temperature: 37 C
Hi, to clarify the labels: y covers protein stability index from 0.6 upward, n covers anything below 0.6.

# count of solved cases: 4
| BIOPOLYMER_SEQUENCE | CLASS_ASSIGNMENT |
| --- | --- |
| RTWLHLVVPVWG | n |
| SLFPHIFFFFFA | n |
| VISGFVLVFRVR | n |
| AFTFLLCWLFGV | y |

Confirm if protein stability index reported for the sequence VARLGGRIGWEG is 0.6 or above.
y
